Just for reference, patent US20260199492A1 is where these values come from.

# test.description: In vitro stability experiment of cell-penetrating peptides in human plasma
# recorded.conditions: plasma with added rt-PA
Square brackets hold non-standard residues; d marks the D form. Peptide text beside a SMILES is read from it.
test.readout: half-life at 10 μM (h)
Expressed in h, but write only the number.

# half-life at 10 μM (compound: N=C(N)NCCC[C@H](NC(=O)[C@@H](CCCNC(=N)N)NC(=O)[C@H](CCC(N)=O)NC(=O)[C@@H](CCCNC(=N)N)NC(=O)[C@H](CCCNC(=N)N)NC(=O)[C@H](CCCCN)NC(=O)[C@H](CCCCN)NC(=O)[C@@H](CCCNC(=N)N)NC(=O)CNC(=O)[C@@H](N)Cc1ccc(O)cc1)C(=O)O [TAT-3] (H-YG[dR]KKR[dR]Q[dR]R-OH) ) is 27.5
